assay: NCI Yeast Anticancer Drug Screen. Data for the cln2 rad14 strain (AID 165);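 further: 0% = growth equal to vehicle treated cultures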; conditions: S. cerevisiae cln2 rad14 strain, stronger effect = higher value; at 50.0 µM unless noted
This is part of a sample that, as a whole, favours compounds with a hit. Of some 79,000 tested, about 15% had one in any assay.
For each of the compounds below, state its growth inhibition.
Give the quantity in %, number only.

Record summary for O=C(CC(=O)c1ccc(OC(=O)c2ccccc2)cc1O)c1ccccc1 : reported growth inhibition = -16.1

Record summary for CCCCOC(=O)C(O)Cc1ccoc1 (centres undefined) : reported growth inhibition = 12.9

Record summary for O=C(O)c1cccc(-c2ccccc2)c1O.O=C(O)c1cccc(-c2ccccc2)c1O.[Cu] : reported growth inhibition = 2.6

Record summary for CN(C)N1C(=O)S/C(=C\c2ccc([N+](=O)[O-])cc2)C1=O : reported growth inhibition = 6.3

Record summary for Cc1ccc([N+](=O)[O-])cc1N : reported growth inhibition = 23.2

Record summary for Cc1cc(=O)c2c(o1)C(=O)c1occc1C2=O : reported growth inhibition = 5.85

Record summary for N#CCCCCCOCCOCCOCCOCCOCCCCCC#N : reported growth inhibition = 12.7

Record summary for COc1ccc(OC)c2[nH]c(Sc3c([N+](=O)[O-])ncn3C)nc12 : reported growth inhibition = 8.55

Record summary for O=C(COc1ccc(Cl)cc1)Nc1cc(Cl)c(Cl)cc1Cl : reported growth inhibition = -17.7

Record summary for NC(=S)/N=C/C=C\c1ccccc1 : reported growth inhibition = 0.35

Record summary for CN(C(=O)CCC1OCCO1)c1cc(N)ccc1OCc1ccccc1 : reported growth inhibition = 4.8

Record summary for Cc1ccc(NC(=O)c2cccc(OP(=O)(O)Nc3ccc(C)cc3)c2)cc1 : reported growth inhibition = 17

Record summary for [O-]c1nn(-c2ccccc2)n[n+]1-c1ccccc1 : reported growth inhibition = -25

Record summary for O=C1C2C3ON(c4ccccc43)C2C(=O)N1c1ccccc1 (centres undefined) : reported growth inhibition = 2.4

Record summary for CCOC(=O)Nc1ccccc1OCC : reported growth inhibition = -90

Record summary for O=S(=O)(c1ccc(Cl)cc1)S(=O)(=O)c1ccc(Cl)cc1 : reported growth inhibition = -18.4

Record summary for NC(=O)CSCC(N)=O : reported growth inhibition = 6.05

Record summary for COC1C(CO)OC(O)C(O)C1O (centres undefined) : reported growth inhibition = -5.45

Record summary for CNc1cc(C(C)C)ccc1C : reported growth inhibition = 0.85

Record summary for O=C1CCC(c2nc3ccccc3[nH]2)N1Cc1ccccc1 (centres undefined) : reported growth inhibition = 4.35

Record summary for COC(=O)C(=O)C(C(=O)OC)C(=O)C(=O)Nc1ccccc1C(N)=O (centres undefined) : reported growth inhibition = -10.2

Record summary for O=Nc1c(O)c2ccccc2[nH]c1=O : reported growth inhibition = 24.9

Record summary for O=C(O)c1ccccc1-c1ccccc1 : reported growth inhibition = 4.3

Record summary for CCOC(=O)C(C)NC(=O)NC12CC3CC(CC(F)(C3)C1)C2 (centres undefined) : reported growth inhibition = 6.35
